Each item that follows carries a reported pEC50.
target under test: APJ receptor (Homo sapiens (Human), UniProt P35414)
Sequence (P35414 whole entry): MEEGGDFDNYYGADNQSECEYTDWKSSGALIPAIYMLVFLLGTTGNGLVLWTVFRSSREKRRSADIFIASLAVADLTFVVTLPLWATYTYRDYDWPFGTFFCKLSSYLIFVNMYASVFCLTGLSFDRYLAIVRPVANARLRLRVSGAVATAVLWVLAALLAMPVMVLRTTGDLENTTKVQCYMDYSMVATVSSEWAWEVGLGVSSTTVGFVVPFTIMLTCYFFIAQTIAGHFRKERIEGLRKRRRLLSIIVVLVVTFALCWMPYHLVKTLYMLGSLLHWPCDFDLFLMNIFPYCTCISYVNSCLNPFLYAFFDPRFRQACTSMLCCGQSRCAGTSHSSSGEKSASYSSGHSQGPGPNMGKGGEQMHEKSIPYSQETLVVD
protocol description: [35S]GTPγS binding assay on membranes from CHO cells stably expressing human APJ receptor
cond: membranes of CHO cells stably expressing human APJ receptor, means of several independent experiments, read-out: Activity hAPJ SPA EC50 IP
pEC50: −log10 of the molar value.
measure name: pEC50

- compound: "COc1cccc(OC)c1-n1c(NS(=O)(=O)[C@H]2CON(C)[C@@H]2c2ncc(F)cn2)nnc1-c1ccco1 (single isomer, unassigned)"
  test value: 6.70
- compound: "CO[C@H](c1ncc(Cl)cn1)[C@H](C)S(=O)(=O)Nc1nnc(-c2ccc(C)o2)n1[C@@H]1CCCOC1"
  test value: 8.08
- compound: "COc1cccc(OC)c1-n1c(NS(=O)(=O)[C@@H](CCO)[C@H](C)c2ncc(C)cn2)nnc1-c1ccc(C)o1 (single isomer, unassigned) [Example 62.0]"
  test value: 9.66
- compound: "C[C@@H](Cc1ncc(F)cn1)S(=O)(=O)Nc1nnc(-c2ccco2)n1C1CCCCC1.C[C@H](Cc1ncc(F)cn1)S(=O)(=O)Nc1nnc(-c2ccco2)n1C1CCCCC1 (mixture of isomers)"
  test value: 6.64
- compound: "COc1cccc(OC)c1-n1c(NS(=O)(=O)[C@@H]2CCC[C@H]2c2ncc(F)cn2)nnc1-c1ccc(C)o1 (single isomer, unassigned)"
  test value: 8.70
- compound: "COc1ncnc(OC)c1-n1c(NS(=O)(=O)[C@@H](C)[C@H](C)c2ncc(Cl)cn2)nnc1-c1ccc(C)o1"
  test value: 10.22
